From: ChEMBL document CHEMBL1143324

molecular target: Sigma non-opioid intracellular receptor 1 (Cavia porcellus, UniProt Q60492); assay: Displacement of [3H](+)-pentazocine from sigma 1-type opioid receptor in guinea pig brain homogenates
Sequence (Q60492 whole entry): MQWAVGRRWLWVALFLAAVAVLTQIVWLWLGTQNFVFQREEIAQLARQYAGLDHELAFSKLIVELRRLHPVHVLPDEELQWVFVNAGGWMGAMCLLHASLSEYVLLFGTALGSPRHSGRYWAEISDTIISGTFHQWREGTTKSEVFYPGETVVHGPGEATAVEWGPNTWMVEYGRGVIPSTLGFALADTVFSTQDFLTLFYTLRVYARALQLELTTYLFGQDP
Ki overview
QUANTITY_MEASURED: Ki (nM)

INSERT INTO assay_data (compound, system, quantity_measured, result_unit, reported) VALUES
  ('COc1ccc(C)cc1NC(=O)OC1CC2CCCC(C1)N2Cc1ccc(SC)cc1 (centres undefined)', 'Sigma non-opioid intracellular receptor 1 (Cavia porcellus, UniProt Q60492)', 'Ki', 'nM', 2020),
  ('COc1ccc(C)cc1NC(=O)OC1CC2CCCC(C1)N2Cc1ccc(N(C)C)cc1 (centres undefined)', 'Sigma non-opioid intracellular receptor 1 (Cavia porcellus, UniProt Q60492)', 'Ki', 'nM', 1440),
  ('COc1ccc(C)cc1NC(=O)OC1CC2CCCC(C1)N2Cc1cccnc1 (centres undefined)', 'Sigma non-opioid intracellular receptor 1 (Cavia porcellus, UniProt Q60492)', 'Ki', 'nM', 2350),
  ('C=CCN1C2CCCC1CC(OC(=O)Nc1cc(C)ccc1OC)C2 (centres undefined)', 'Sigma non-opioid intracellular receptor 1 (Cavia porcellus, UniProt Q60492)', 'Ki', 'nM', 1260);

* * *

experiment: Selectivity ratio, Ki for sigma 1 receptor in guinea pig brain homogenates to Ki for sigma 2 receptor in rat liver homogenates; assay type: tissue-based
QUANTITY_MEASURED: Ratio Ki

INSERT INTO assay_data (molecule, reported) VALUES
  ('COc1ccc(C)cc1NC(=O)OC1CC2CCCC(C1)N2CCc1ccc(CCF)cc1 (stereo unspecified)', 10),
  ('COc1ccc(C)cc1NC(=O)OC1CC2CCCC(C1)N2CCc1ccc(N(C)C)cc1 (stereo unspecified)', 10),
  ('COc1ccc(C)cc1NC(=O)OC1CC2CCCC(C1)N2Cc1cccnc1 (stereo unspecified)', 13),
  ('COc1ccc(C)cc1NC(=O)OC1CC2CCCC(C1)N2Cc1ccncc1 (stereo unspecified)', 3),
  ('C=CCN1C2CCCC1CC(OC(=O)Nc1cc(C)ccc1OC)C2 (stereo unspecified)', 15),
  ('COc1ccc(C)cc1NC(=O)OC1CC2CCCC(C1)N2CCF (stereo unspecified)', 14),
  ('COc1ccc(CN2C3CCCC2CC(OC(=O)Nc2cc(C)ccc2OC)C3)cc1 (stereo unspecified)', 8),
  ('COc1ccc(CCN2C3CCCC2CC(OC(=O)Nc2cc(C)ccc2OC)C3)cc1 (stereo unspecified)', 4),
  ('COc1ccc(C)cc1NC(=O)OC1CC2CCCC(C1)N2Cc1ccc(F)nc1 (stereo unspecified)', 4),
  ('COc1ccc(C)cc1NC(=O)OC1CC2CCCC(C1)N2Cc1ccc(N(C)C)cc1 (stereo unspecified)', 557),
  ('COc1ccc(C)cc1NC(=O)OC1CC2CCCC(C1)N2Cc1ccc(CCF)cc1 (stereo unspecified)', 2090);

* * *

Ki overview
assay: Displacement of [3H]RHM-1 from sigma 2-type opioid receptor in rat liver homogenates; type: tissue-based
QUANTITY_MEASURED: Ki (nM)

INSERT INTO measurements (molecule, reported) VALUES
  ('COc1ccc(C)cc1NC(=O)OC1CC2CCCC(C1)N2Cc1ccc(SC)cc1 (stereo not given)', 8190),
  ('COc1ccc(C)cc1NC(=O)OC1CC2CCCC(C1)N2CCc1ccc(CCF)cc1 (stereo not given)', 276),
  ('CCn1c(=O)n(C(=O)NC2CC3CCC(C2)N3C)c2ccccc21 (stereo not given)', 32),
  ('COc1ccc(C)cc1NC(=O)OC1CC2CCCC(C1)N2CCF (stereo not given)', 143),
  ('C=CCN1C2CCCC1CC(OC(=O)Nc1cc(C)ccc1OC)C2 (stereo not given)', 85.9),
  ('COc1ccc(C)cc1NC(=O)OC1CC2CCCC(C1)N2Cc1cccnc1 (stereo not given)', 184),
  ('COc1ccc(C)cc1NC(=O)OC1CC2CCCC(C1)N2Cc1ccc(F)nc1 (stereo not given)', 572),
  ('COc1ccc(C)cc1C(=O)NCCCCN1CCc2cc(OO)c(OO)cc2C1', 10.3),
  ('COc1ccc(C)cc1NC(=O)OC1CC2CCCC(C1)N2Cc1ccc(N(C)C)cc1 (stereo not given)', 2.58),
  ('COc1ccc(C)cc1NC(=O)OC1CC2CCCC(C1)N2Cc1ccncc1 (stereo not given)', 522),
  ('COc1ccc(CN2C3CCCC2CC(OC(=O)Nc2cc(C)ccc2OC)C3)cc1 (stereo not given)', 40.7),
  ('COc1ccc(C)cc1NC(=O)OC1CC2CCCC(C1)N2Cc1ccc(CCF)cc1 (stereo not given)', 0.82),
  ('COc1ccc(C)cc1NC(=O)OC1CC2CCCC(C1)N2Cc1ccccc1 (stereo not given)', 3.1),
  ('COc1ccc(C)cc1NC(=O)OC1CC2CCCC(C1)N2CCc1ccc(N(C)C)cc1 (stereo not given)', 195),
  ('COc1ccc(CCN2C3CCCC2CC(OC(=O)Nc2cc(C)ccc2OC)C3)cc1 (stereo not given)', 126);

* * *

test: Partition coefficient, log P of the compound; type: physicochemical; settings: octanol/water
QUANTITY_MEASURED: logP

INSERT INTO assay_data (molecule, quantity_measured, reported) VALUES
  ('COc1ccc(C)cc1NC(=O)OC1CC2CCCC(C1)N2Cc1ccc(SC)cc1 (configuration not stated)', 'logP', 3.92),
  ('O=C(CCCN1CCC(O)(c2ccc(Cl)cc2)CC1)c1ccc(F)cc1', 'logP', 3.36),
  ('COc1ccc(C)cc1NC(=O)OC1CC2CCCC(C1)N2Cc1ccncc1 (configuration not stated)', 'logP', 2.94),
  ('COc1ccc(CCN2C3CCCC2CC(OC(=O)Nc2cc(C)ccc2OC)C3)cc1 (configuration not stated)', 'logP', 3.22),
  ('COc1ccc(C)cc1NC(=O)OC1CC2CCCC(C1)N2Cc1cccnc1 (configuration not stated)', 'logP', 2.7),
  ('COc1ccc(C)cc1NC(=O)OC1CC2CCCC(C1)N2Cc1ccc(F)nc1 (configuration not stated)', 'logP', 3.21),
  ('COc1ccc(C)cc1NC(=O)OC1CC2CCCC(C1)N2CCc1ccc(N(C)C)cc1 (configuration not stated)', 'logP', 3.36),
  ('COc1ccc(CN2C3CCCC2CC(OC(=O)Nc2cc(C)ccc2OC)C3)cc1 (configuration not stated)', 'logP', 3.3),
  ('COc1ccc(C)cc1NC(=O)OC1CC2CCCC(C1)N2CCF (configuration not stated)', 'logP', 2.85),
  ('COc1ccc(C)cc1NC(=O)OC1CC2CCCC(C1)N2Cc1ccc(N(C)C)cc1 (configuration not stated)', 'logP', 3.02),
  ('COc1ccc(C)cc1NC(=O)OC1CC2CCCC(C1)N2CCc1ccc(CCF)cc1 (configuration not stated)', 'logP', 3.69),
  ('C=CCN1C2CCCC1CC(OC(=O)Nc1cc(C)ccc1OC)C2 (configuration not stated)', 'logP', 2.86);

* * *

Ki overview
Biological target: 5-hydroxytryptamine receptor 3A (Homo sapiens)
Sequence (P46098 whole entry): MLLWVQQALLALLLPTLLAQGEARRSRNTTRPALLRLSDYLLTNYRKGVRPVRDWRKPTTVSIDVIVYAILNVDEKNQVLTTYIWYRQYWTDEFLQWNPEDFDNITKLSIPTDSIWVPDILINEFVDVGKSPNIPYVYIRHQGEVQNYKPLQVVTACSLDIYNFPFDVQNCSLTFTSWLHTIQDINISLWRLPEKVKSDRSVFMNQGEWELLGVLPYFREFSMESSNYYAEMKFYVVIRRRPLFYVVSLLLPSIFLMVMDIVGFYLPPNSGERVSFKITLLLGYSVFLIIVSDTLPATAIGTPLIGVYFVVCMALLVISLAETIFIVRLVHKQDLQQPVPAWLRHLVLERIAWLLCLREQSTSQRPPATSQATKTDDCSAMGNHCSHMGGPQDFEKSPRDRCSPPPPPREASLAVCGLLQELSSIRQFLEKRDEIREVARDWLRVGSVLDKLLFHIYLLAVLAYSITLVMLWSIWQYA
QUANTITY_MEASURED: Ki (nM)

INSERT INTO results (compound, system, result_unit, censoring_sign, reported) VALUES
  ('CCn1c(=O)n(C(=O)NC2CC3CCC(C2)N3C)c2ccccc21 (configuration not stated)', '5-hydroxytryptamine receptor 3A (Homo sapiens)', 'nM', '=', 1),
  ('COc1ccc(C)cc1NC(=O)OC1CC2CCCC(C1)N2Cc1ccccc1 (configuration not stated)', '5-hydroxytryptamine receptor 3A (Homo sapiens)', 'nM', '>', 1000);

* * *

molecular target: Sigma non-opioid intracellular receptor 1 (Cavia porcellus); assay: Displacement of [3H](+)-pentazocine from sigma 1-type opioid receptor in guinea pig brain homogenates
Decision: Ki beneath 2 µM gives yes (1); Ki meeting or exceeding 2 µM gives no (0).

INSERT INTO measurements (compound, system, group) VALUES
  ('COc1ccc(C)cc1NC(=O)OC1CC2CCCC(C1)N2Cc1ccc(F)nc1 (stereo not given)', 'Sigma non-opioid intracellular receptor 1 (Cavia porcellus)', 'no (0)'),
  ('COc1ccc(CN2C3CCCC2CC(OC(=O)Nc2cc(C)ccc2OC)C3)cc1 (stereo not given)', 'Sigma non-opioid intracellular receptor 1 (Cavia porcellus)', 'yes (1)'),
  ('COc1ccc(C)cc1NC(=O)OC1CC2CCCC(C1)N2CCc1ccc(N(C)C)cc1 (stereo not given)', 'Sigma non-opioid intracellular receptor 1 (Cavia porcellus)', 'yes (1)'),
  ('COc1ccc(CCN2C3CCCC2CC(OC(=O)Nc2cc(C)ccc2OC)C3)cc1 (stereo not given)', 'Sigma non-opioid intracellular receptor 1 (Cavia porcellus)', 'yes (1)'),
  ('COc1ccc(C)cc1NC(=O)OC1CC2CCCC(C1)N2Cc1ccncc1 (stereo not given)', 'Sigma non-opioid intracellular receptor 1 (Cavia porcellus)', 'yes (1)'),
  ('COc1ccc(C)cc1NC(=O)OC1CC2CCCC(C1)N2CCc1ccc(CCF)cc1 (stereo not given)', 'Sigma non-opioid intracellular receptor 1 (Cavia porcellus)', 'no (0)'),
  ('CCn1c(=O)n(C(=O)NC2CC3CCC(C2)N3C)c2ccccc21 (stereo not given)', 'Sigma non-opioid intracellular receptor 1 (Cavia porcellus)', 'no (0)'),
  ('COc1ccc(C)cc1NC(=O)OC1CC2CCCC(C1)N2Cc1ccc(CCF)cc1 (stereo not given)', 'Sigma non-opioid intracellular receptor 1 (Cavia porcellus)', 'yes (1)'),
  ('COc1ccc(C)cc1C(=O)NCCCCN1CCc2cc(OO)c(OO)cc2C1', 'Sigma non-opioid intracellular receptor 1 (Cavia porcellus)', 'no (0)');
